- assay.details: NCI Yeast Anticancer Drug Screen. Data for the mec2-1 strain (AID 157)
- test.conditions: S. cerevisiae mec2-1 strain, at 50.0 µM, active compounds read high
This is part of a sample that, as a whole, favours compounds with a hit. Of some 79,000 tested, about 15% had one in any assay.
measurement.label: growth inhibition (%)
Answer with a number only, understood to be in %.

CC(=O)CC(=O)N1C(C)CCCC1C (configuration not stated) ... -36.7
Cc1ccccc1C(=O)NNC(=O)c1cccc2ccccc12 ... -24.9
CC1=C(C#N)C(=O)OC1(C)C1CCCC(=O)C1 (configuration not stated) ... -1.45

Look up growth inhibition: O=C(Nc1ccc(C(F)(F)F)cc1)NC(F)(F)F
-6.7

Look up growth inhibition: C=C1C(=O)O[C@H]2C3OC3(C)CC/C=C(/C(=O)OC)[C@@H](OC(C)=O)[C@H](OC(=O)C3(C)OC3C)[C@H]12 (some centres not stated)
31.8

Look up growth inhibition: Brc1ccccc1N=Nc1ccccc1Br
3.95

Look up growth inhibition: O=C1NN(c2ccccc2)C(=O)C2C3c4ccccc4C(c4ccccc43)C12 (configuration not stated)
-6.8

Look up growth inhibition: O=C(CNc1ccccn1)Nn1cnc2ccc(S(=O)(=O)Nc3ccccn3)cc2c1=O
28

Look up growth inhibition: CCNC1=C(C(=O)OCC)C(=O)CO1
15.9

Look up growth inhibition: O=C(Nc1ccc(S(=O)(=O)NC2CCCCC2)cc1)Oc1ccc([N+](=O)[O-])cc1
3.55

Look up growth inhibition: CSc1nc(Cl)nc2[nH]ncc12
-5.4

Look up growth inhibition: Cc1nc2sc(CCl)nn2c(=O)c1Cl
34

Look up growth inhibition: CC1=CC(=O)[C@@H](O)[C@]2(C)[C@H]3[C@@]4(O)OC[C@]35[C@H]([C@@H](CO)[C@H]4O)[C@@H](OC3OC(CO)C(O)C(O)C3O)C(=O)O[C@@H]5C[C@@H]12 (some centres not stated)
-14.5

Look up growth inhibition: CCc1nc(N)nc(N)c1-c1ccc2c(c1)nnn2C
14.8

Look up growth inhibition: O=C(O)C1c2ccccc2-c2ccccc21
31.6

Look up growth inhibition: CC(=O)N1Cc2c(nc[nH]c2=O)C1C (configuration not stated)
27.4

Look up growth inhibition: CCC(c1ccc(O)cc1)c1cc2c(cc1OCC(=O)OC)OCO2 (configuration not stated)
-9.3
